# assaySummary: self-splicing fitness, log relative to wild type (ln ratio); higher = more splicing; Tetrahymena group I intron in knt gene, E. coli kanamycin selection, DiMSum; sequences stand for … in CUCUCU…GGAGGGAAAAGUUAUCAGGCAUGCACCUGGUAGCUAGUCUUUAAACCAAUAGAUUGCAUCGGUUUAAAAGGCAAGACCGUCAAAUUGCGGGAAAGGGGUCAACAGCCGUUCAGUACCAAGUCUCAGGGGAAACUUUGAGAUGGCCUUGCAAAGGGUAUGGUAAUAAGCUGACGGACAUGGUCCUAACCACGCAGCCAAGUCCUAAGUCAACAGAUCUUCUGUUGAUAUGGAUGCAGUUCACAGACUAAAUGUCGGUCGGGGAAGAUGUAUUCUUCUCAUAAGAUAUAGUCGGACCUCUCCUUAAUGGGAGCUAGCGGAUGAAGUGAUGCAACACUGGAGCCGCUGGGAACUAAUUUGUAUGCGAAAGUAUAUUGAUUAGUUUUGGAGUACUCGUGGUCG;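 further: selection with 25 µg/mL kanamycin versus none on LB agar overnight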
# measurementConditions: 30 °C
Classify as follows. Reported self-splicing fitness (ln) greater than or equal to -3: true (1). Reported self-splicing fitness (ln) below: false (0).

CCAUAGCAAUAUUACGCUGU | false (0)
GUCAAGCAAUAUUACGUAGA | true (1)

Could you now consider this next sequence?
Record `UGACAGCAAUAUUACGGCAA` ; criterion: self-splicing fitness (ln) no lower than -3. Met?
true (1)
